Data credit: patent EP4039268A1

Please respond with reported Mean normalized OD for every item in the list.
target: T1, human recombinant soluble ACE2 (human, UniProt Q9BYF1 18-740); test: ELISA screen
T1 construct: also called hrsACE2
Answers are plain numbers, in OD.

These recorded examples may help you get a feel for the data.
Which Mean normalized OD is reported for this binder? Clec12b CRD-mouse IgG2a-Fc fusion protein (Fc fusion) YGNSCYYFSINEEKSWSDSRKDCIDKNATLVKIDSTEERDLLQSQLSLTFSFFWLGLSWNSSGRNWLWEDGSFPPPTLFSDKELASFNGSRDCAYFERGNIYASRCSAEIPWICEGGGSGGGSGGGS 0.007

Which Mean normalized OD is reported for this binder? Lgals2 CRD-mouse IgG2a-Fc fusion protein (Fc fusion) KFEVKDLNMKPGMSLKIKGKIHNDVDRFLINLGQGKETLNLHFNPRFDESTIVCNTSEGGRWGQEQRENHMCFSPGSEVKITITFQDKDFKVTLPDGHQLTFPNRLGHNQLHYLSMGGLQISSFKLEGGGSGGGSGGGS 0.031

Which Mean normalized OD is reported for this binder? Ly75_10 CRD-mouse IgG2a-Fc fusion protein (Fc fusion) YGGHCYASDQVLHSFSEAKQVCQELDHSATVVTIADENENKFVSRLMRENYNITMRVWLGLSQHSLDQSWSWLDGLDVTFVKWENKTKDGDGKCSILIASNETWRKVHCSRGYARAVCKIGGGSGGGSGGGS -0.02

Each binder below has a recorded value; state its Mean normalized OD.
1. Clec6a CRD-mouse IgG2a-Fc fusion protein (Fc fusion) FGSSCYLISTKENFWSTSEQNCVQMGAHLVVINTEAEQNFITQQLNESLSYFLGLSDPQGNGKWQWIDDTPFSQNVRFWHPHEPNLPEERCVSIVYWNPSKWGWNDVFCDSKHNSICEGGGSGGGSGGGS
2. Cd207 CRD-mouse IgG2a-Fc fusion protein (Fc fusion) FSGNFYYFSRTPKTWYSAEQFCISRKAHLTSVSSESEQKFLYKAADGIPHWIGLTKAGSEGDWYWVDQTSFNKEQSRRFWIPGEPNNAGNNEHCANIRVSALKCWNDGPCDNTFLFICKGGGSGGGSGGGS

[-0.032, 0.123]
